Origin of the recorded values: patent US9707229B2

# System: Corynebacterium urealyticum
# test.protocol: Expected efficacy of antibiotic agents
# Assay type: cell-based
# condition.description: Gram: pos
measurement.label: efficacy against Corynebacterium urealyticum

[[record]]
cpd_smiles = "C/C(=C\\C(=O)OCCCCCCCCC(=O)O)C[C@@H]1OC[C@H](C[C@@H]2O[C@H]2[C@@H](C)[C@H](C)O)[C@@H](O)[C@H]1O"
observed = "no"

[[record]]
cpd_smiles = "CO/N=C(\\C(=O)N[C@@H]1C(=O)N2C(C(=O)O)=C(CSc3nc(=O)c(=O)[nH]n3C)CS[C@H]12)c1csc(N)n1"
observed = "no"

[[record]]
cpd_smiles = "CN[C@H](CC(C)C)C(=O)N[C@H]1C(=O)N[C@@H](CC(N)=O)C(=O)N[C@H]2C(=O)N[C@H]3C(=O)N[C@H](C(=O)N[C@H](C(=O)O)c4cc(O)cc(O)c4-c4cc3ccc4O)[C@H](O)c3ccc(c(Cl)c3)Oc3cc2cc(c3O[C@@H]2O[C@H](CO)[C@@H](O)[C@H](O)[C@H]2O[C@H]2C[C@](C)(N)[C@H](O)[C@H](C)O2)Oc2ccc(cc2Cl)[C@H]1O"
observed = "yes"

[[record]]
cpd_smiles = "NC[C@H]1O[C@H](O[C@H]2[C@H](O)[C@@H](O[C@H]3O[C@H](CO)[C@@H](O)[C@H](N)[C@H]3O)[C@H](N)C[C@@H]2N)[C@H](N)C[C@@H]1O"
observed = "no"


====

# Tested on: Legionella pneumophila
# Assay type: cell-based
# condition.description: expected efficacy; Gram: neg
measurement.label: efficacy against Legionella pneumophila

These recorded examples may help you get a feel for the data.
[[record]]
compound = "CO/N=C(\\C(=O)N[C@@H]1C(=O)N2C(C(=O)O)=C(CSc3nc(=O)c(=O)[nH]n3C)CS[C@H]12)c1csc(N)n1 [Ceftriaxone]"
measurement_label = "efficacy against Legionella pneumophila"
observed = "no"

[[record]]
compound = "O=C(O)c1cn(C2CC2)c2cc(N3CCNCC3)c(F)cc2c1=O [Ciprofloxacin]"
measurement_label = "efficacy against Legionella pneumophila"
observed = "yes"

[[record]]
compound = "CC[C@H]1OC(=O)[C@H](C)[C@@H](O[C@H]2C[C@@](C)(OC)[C@@H](O)[C@H](C)O2)[C@H](C)[C@@H](O[C@@H]2O[C@H](C)C[C@H](N(C)C)[C@H]2O)[C@](C)(O)C[C@@H](C)CN(C)[C@H](C)[C@@H](O)[C@]1(C)O [Azithromycin]"
measurement_label = "efficacy against Legionella pneumophila"
observed = "yes"

[[record]]
compound = "C/C(=C\\C(=O)OCCCCCCCCC(=O)O)C[C@@H]1OC[C@H](C[C@@H]2O[C@H]2[C@@H](C)[C@H](C)O)[C@@H](O)[C@H]1O [Bactroban, Mupirocin]"
measurement_label = "efficacy against Legionella pneumophila"
observed = "no"


Next up:
Task: Suppose we examine the compound NC[C@H]1O[C@H](O[C@H]2[C@H](O)[C@@H](O[C@H]3O[C@H](CO)[C@@H](O)[C@H](N)[C@H]3O)[C@H](N)C[C@@H]2N)[C@H](N)C[C@@H]1O [Tobramycin] ; what efficacy against Legionella pneumophila value has been reported?
Output: no

====

# Test system: Enterococcus faecalis
# test.protocol: Expected efficacy of antibiotic agents
# Type: cell-based
# condition.description: Gram: pos
measurement.label: efficacy against Enterococcus faecalis

[[record]]
molecule = "CN[C@H](CC(C)C)C(=O)N[C@H]1C(=O)N[C@@H](CC(N)=O)C(=O)N[C@H]2C(=O)N[C@H]3C(=O)N[C@H](C(=O)N[C@H](C(=O)O)c4cc(O)cc(O)c4-c4cc3ccc4O)[C@H](O)c3ccc(c(Cl)c3)Oc3cc2cc(c3O[C@@H]2O[C@H](CO)[C@@H](O)[C@H](O)[C@H]2O[C@H]2C[C@](C)(N)[C@H](O)[C@H](C)O2)Oc2ccc(cc2Cl)[C@H]1O [Vancomycin]"
target_of_assay = "Enterococcus faecalis"
observed = "yes"

[[record]]
molecule = "CO/N=C(\\C(=O)N[C@@H]1C(=O)N2C(C(=O)O)=C(CSc3nc(=O)c(=O)[nH]n3C)CS[C@H]12)c1csc(N)n1 [Ceftriaxone]"
target_of_assay = "Enterococcus faecalis"
observed = "no"

[[record]]
molecule = "CC[C@H]1OC(=O)[C@H](C)[C@@H](O[C@H]2C[C@@](C)(OC)[C@@H](O)[C@H](C)O2)[C@H](C)[C@@H](O[C@@H]2O[C@H](C)C[C@H](N(C)C)[C@H]2O)[C@](C)(O)C[C@@H](C)CN(C)[C@H](C)[C@@H](O)[C@]1(C)O [Azithromycin]"
target_of_assay = "Enterococcus faecalis"
observed = "no"

[[record]]
molecule = "NC[C@H]1O[C@H](O[C@H]2[C@H](O)[C@@H](O[C@H]3O[C@H](CO)[C@@H](O)[C@H](N)[C@H]3O)[C@H](N)C[C@@H]2N)[C@H](N)C[C@@H]1O [Tobramycin]"
target_of_assay = "Enterococcus faecalis"
observed = "no"


====

# System: Rickettsiae
# Format: cell-based
# condition.description: expected efficacy; Gram: neg
measurement.label: efficacy against Rickettsiae

[[record]]
cpd_smiles = "O=C(O)c1cn(C2CC2)c2cc(N3CCNCC3)c(F)cc2c1=O"
measurement_label = "efficacy against Rickettsiae"
observed = "yes"

[[record]]
cpd_smiles = "CC[C@H]1OC(=O)[C@H](C)[C@@H](O[C@H]2C[C@@](C)(OC)[C@@H](O)[C@H](C)O2)[C@H](C)[C@@H](O[C@@H]2O[C@H](C)C[C@H](N(C)C)[C@H]2O)[C@](C)(O)C[C@@H](C)CN(C)[C@H](C)[C@@H](O)[C@]1(C)O"
measurement_label = "efficacy against Rickettsiae"
observed = "yes"

[[record]]
cpd_smiles = "C/C(=C\\C(=O)OCCCCCCCCC(=O)O)C[C@@H]1OC[C@H](C[C@@H]2O[C@H]2[C@@H](C)[C@H](C)O)[C@@H](O)[C@H]1O"
measurement_label = "efficacy against Rickettsiae"
observed = "no"

[[record]]
cpd_smiles = "CO/N=C(\\C(=O)N[C@@H]1C(=O)N2C(C(=O)O)=C(CSc3nc(=O)c(=O)[nH]n3C)CS[C@H]12)c1csc(N)n1"
measurement_label = "efficacy against Rickettsiae"
observed = "no"


====

# Tested on: Haemophilus ducreyi
# test.protocol: Expected efficacy of antibiotic agents
# Format: cell-based
# condition.description: Gram: neg
measurement.label: efficacy against Haemophilus ducreyi

[[record]]
cpd_smiles = "NC[C@H]1O[C@H](O[C@H]2[C@H](O)[C@@H](O[C@H]3O[C@H](CO)[C@@H](O)[C@H](N)[C@H]3O)[C@H](N)C[C@@H]2N)[C@H](N)C[C@@H]1O"
observed = "yes"

[[record]]
cpd_smiles = "CO/N=C(\\C(=O)N[C@@H]1C(=O)N2C(C(=O)O)=C(CSc3nc(=O)c(=O)[nH]n3C)CS[C@H]12)c1csc(N)n1"
observed = "yes"

[[record]]
cpd_smiles = "C/C(=C\\C(=O)OCCCCCCCCC(=O)O)C[C@@H]1OC[C@H](C[C@@H]2O[C@H]2[C@@H](C)[C@H](C)O)[C@@H](O)[C@H]1O"
observed = "no"

[[record]]
cpd_smiles = "CN[C@H](CC(C)C)C(=O)N[C@H]1C(=O)N[C@@H](CC(N)=O)C(=O)N[C@H]2C(=O)N[C@H]3C(=O)N[C@H](C(=O)N[C@H](C(=O)O)c4cc(O)cc(O)c4-c4cc3ccc4O)[C@H](O)c3ccc(c(Cl)c3)Oc3cc2cc(c3O[C@@H]2O[C@H](CO)[C@@H](O)[C@H](O)[C@H]2O[C@H]2C[C@](C)(N)[C@H](O)[C@H](C)O2)Oc2ccc(cc2Cl)[C@H]1O"
observed = "no"


====

# Test system: Bacteroides fragilis
# test.protocol: Expected efficacy of antibiotic agents
# Type: cell-based
# condition.description: Gram: anaer
measurement.label: efficacy against Bacteroides fragilis

These recorded examples may help you get a feel for the data.
[[record]]
molecule = "O=C(O)c1cn(C2CC2)c2cc(N3CCNCC3)c(F)cc2c1=O [Ciprofloxacin]"
target_of_assay = "Bacteroides fragilis"
measurement_label = "efficacy against Bacteroides fragilis"
observed = "no"

[[record]]
molecule = "CC[C@H]1OC(=O)[C@H](C)[C@@H](O[C@H]2C[C@@](C)(OC)[C@@H](O)[C@H](C)O2)[C@H](C)[C@@H](O[C@@H]2O[C@H](C)C[C@H](N(C)C)[C@H]2O)[C@](C)(O)C[C@@H](C)CN(C)[C@H](C)[C@@H](O)[C@]1(C)O [Azithromycin]"
target_of_assay = "Bacteroides fragilis"
measurement_label = "efficacy against Bacteroides fragilis"
observed = "no"

[[record]]
molecule = "CO/N=C(\\C(=O)N[C@@H]1C(=O)N2C(C(=O)O)=C(CSc3nc(=O)c(=O)[nH]n3C)CS[C@H]12)c1csc(N)n1 [Ceftriaxone]"
target_of_assay = "Bacteroides fragilis"
measurement_label = "efficacy against Bacteroides fragilis"
observed = "yes"

[[record]]
molecule = "NC[C@H]1O[C@H](O[C@H]2[C@H](O)[C@@H](O[C@H]3O[C@H](CO)[C@@H](O)[C@H](N)[C@H]3O)[C@H](N)C[C@@H]2N)[C@H](N)C[C@@H]1O [Tobramycin]"
target_of_assay = "Bacteroides fragilis"
measurement_label = "efficacy against Bacteroides fragilis"
observed = "no"


Next up:
Task: Suppose we examine the molecule CN[C@H](CC(C)C)C(=O)N[C@H]1C(=O)N[C@@H](CC(N)=O)C(=O)N[C@H]2C(=O)N[C@H]3C(=O)N[C@H](C(=O)N[C@H](C(=O)O)c4cc(O)cc(O)c4-c4cc3ccc4O)[C@H](O)c3ccc(c(Cl)c3)Oc3cc2cc(c3O[C@@H]2O[C@H](CO)[C@@H](O)[C@H](O)[C@H]2O[C@H]2C[C@](C)(N)[C@H](O)[C@H](C)O2)Oc2ccc(cc2Cl)[C@H]1O [Vancomycin] ; what efficacy against Bacteroides fragilis value has been reported?
Output: no
